Please respond with reported protein stability index for every item in the list.
B1: TIA1 (parent)
chain: TYECRCIGEEKEMWNFGEKYARF

# Variants of: B1
# assay_remarks: protein stability index of a GFP-peptide fusion (GPS, HEK-293T) (PSI 1-6); higher = more stable;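 also: lentivirally expressed fusions sorted by FACS into six bins by GFP to DsRed ratio, PSI derived from sequencing read proportions per bin multiplied by bin number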
# reported_conditions: c terminus: native
Give bare numbers.

Worked examples, 4 variants total:
Prompt: Fill blank: measured protein stability index of the variant SYECRCIGEEKEMWNFGEKYARF [T1S] is ____.
Response: 2.51

Prompt: Same lookup for TYECRCIGEVKEMWNFGEKYARF [E10V] , please.
Response: 1.58

Prompt: Same thing, different variant: TYECQCIGEEKEMWNFGEKYARF [R5Q]
Response: 1.73

Prompt: Ok, now TYECTCIGEEKEMWNFGEKYARF [R5T]
Response: 2.31

Quick batch: protein stability index for everything below.
1. TYECRCIGEEKEMMNFGEKYARF [W14M]
2. TYECRCIGEEKMMWNFGEKYARF [E12M]
3. TYECRCIGEEKEMWNFGEKYAFF [R22F]
4. TYECRCIGEEKEMWNFFEKYARF [G17F]
5. TYECRCTGEEKEMWNFGEKYARF [I7T]
6. TYECRCIGEEKEMWNFPEKYARF [G17P]
7. TYECRCIGEEKEMWNFGEKLARF [Y20L]

Response:
1. 2.27
2. 1.88
3. 2.23
4. 1.81
5. 2.98
6. 2.15
7. 1.54

Where do these numbers come from? They come from the supplement of paper PMC10567573.
